All figures here come from ChEMBL document CHEMBL1201862.

Measured GI50 accompanies every entry in the list below.
system: SNB-19; assay: NCI tumour cell line growth inhibition, 48 h
Calls of active or inactive are those of the source. Cut-off read from the data, not from the text of the source: active = GI50 up to about 1.1 µM and inactive = higher.

COC(=O)c1c(O)ccc2[nH]c3c(O)c4ccccc4cc3c12 = 41.7 µM (inactive)
CC(=O)OCC1OC(n2c3c(cc(C#N)c2=S)CCCCCC3)C(OC(C)=O)C(OC(C)=O)C1OC(C)=O (stereo not drawn) = > 100 µM (inactive)

We now examine a further compound.
For CCN1C(=O)/C(=C2\SC(c3ccccc3)(c3ccccc3)c3ccccc32)SC1=S , what is its reported GI50?
10.1 µM (inactive)

* * *

test system: SF-295; test: NCI tumour cell line growth inhibition, 48 h
Active and inactive are the calls of the source. Cut-off read from the data, not from the text of the source: active = GI50 up to about 1.1 µM and inactive = higher.
metric: GI50

Below are worked cases with known answers.
C=C(C)C1Cc2c(cc3c(c2O)c(=O)c2ccccc2n3C)O1 (stereo unspecified) = 5.78 µM (inactive)
O=C(NCCNCCCNC(=O)c1cc(-c2ccccc2)nc2ccccc12)c1cccc(OCc2ccccc2)c1OCc1ccccc1 = 1.64 µM (inactive)
Cc1ccc(C(=O)N/N=C(\N=N\c2cccc([N+](=O)[O-])c2)c2ccc(N(CCC#N)CCC#N)cc2C)cc1 = 26.9 µM (inactive)
CN(C)C(=S)SCc1ccccc1 = > 100 µM (inactive)
O=C1c2cc([N+](=O)[O-])sc2C(=O)c2cc([N+](=O)[O-])sc21 = 8.2 µM (inactive)

Which value of GI50 has been reported for O=S(=O)(OI(O)CC(F)(F)F)C(F)(F)F in the records?
> 100 µM (inactive)
